system: RIVA; assay: growth inhibition by drug alone (1 - RLU/untreated control) (fraction); higher = stronger inhibition; conditions: 100 nM; time (day): 4; 177Lu-lilotomab satetraxetan 0 ug/ml
Overview of recorded growth inhibition by drug alone for various compounds
// return a plain number; no unit text

compound=COC(=O)c1ccc2c(C(=Nc3ccc(N(C)C(=O)CN4CCN(C)CC4)cc3)c3ccccc3)c(O)[nH]c2c1 measured_property="growth inhibition by drug alone" obs_value=-0.322
compound="CN(N=O)C(=O)N[C@@H](C=O)[C@@H](O)[C@H](O)[C@H](O)CO [Streptozotocin (Zanosar)]" measured_property="growth inhibition by drug alone" obs_value=-0.295
compound="O=C(O)CCCc1ccccc1 [4-Phenylbutyrate]" measured_property="growth inhibition by drug alone" obs_value=-0.277

Inquiry: // fetch growth inhibition by drug alone given entry CC[C@]1(O)C[C@H]2CN(CCc3c([nH]c4ccccc34)[C@@](C(=O)OC)(c3cc4c(cc3OC)N(C=O)[C@H]3[C@@](O)(C(=O)OC)[C@H](OC(C)=O)[C@]5(CC)C=CCN6CC[C@]43[C@@H]65)C2)C1
Reply text: 0.955

====

Below is a list of entries, each paired with its recorded growth inhibition by drug plus 177Lu-lilotomab satetraxetan value.
system: RIVA; assay: growth inhibition by drug plus 177Lu-lilotomab satetraxetan (1 - RLU/untreated control) (fraction); higher = stronger inhibition; conditions: 100 nM; time (day): 3; 177Lu-lilotomab satetraxetan 0.5 ug/ml
Note: the reply should be a number with no unit written.

Known growth inhibition by drug plus 177Lu-lilotomab satetraxetan results, listed for orientation:
compound=Cc1[nH]c(/C=C2\C(=O)Nc3ccc(S(=O)(=O)N(C)c4cccc(Cl)c4)cc32)c(C)c1C(=O)N1CCN(C)CC1 assay_target=RIVA obs_value=0.412
compound=CO[C@@H](C(=O)N1Cc2[nH]nc(NC(=O)c3ccc(N4CCN(C)CC4)cc3)c2C1)c1ccccc1 assay_target=RIVA obs_value=0.514
compound=C[C@@H](Oc1cc(-n2cnc3ccc(CN4CCN(C)CC4)cc32)sc1C(N)=O)c1ccccc1C(F)(F)F assay_target=RIVA obs_value=0.943
compound=O=C(O)c1ccc2cc(-c3ccc(O)c(C45CC6CC(CC(C6)C4)C5)c3)ccc2c1 assay_target=RIVA obs_value=0.404

Inquiry: # return recorded growth inhibition by drug plus 177Lu-lilotomab satetraxetan for entry COc1cc(C(=O)NC(=S)Nc2cccc(NC(=O)c3ccccc3)c2)cc(OC)c1OC
Reply text: 0.562

Inquiry: Please give measured growth inhibition by drug plus 177Lu-lilotomab satetraxetan of the following entry: O=c1[nH]cc(F)c(=O)[nH]1 [Adrucil (Fluorouracil)]
Reply text: 0.398

Inquiry: # return recorded growth inhibition by drug plus 177Lu-lilotomab satetraxetan for input C[C@]1(O)C[C@@H](c2nc(-c3ccc4ccc(-c5ccccc5)nc4c3)c3c(N)nccn32)C1 [Linsitinib (OSI-906)]
Reply text: 0.283

Inquiry: Tell me measured growth inhibition by drug plus 177Lu-lilotomab satetraxetan for Cc1cnc(NC(=O)Nc2cc(Br)c(C)cc2OC[C@@H]2CNCCO2)cn1 please.
Reply text: 0.176

Inquiry: Determine its reported growth inhibition by drug plus 177Lu-lilotomab satetraxetan: NC(=O)Nc1cc(-c2cccc(F)c2)sc1C(=O)N[C@H]1CCCNC1
Reply text: 0.139

====

system: U-2932; experiment: growth inhibition by drug plus 177Lu-lilotomab satetraxetan (1 - RLU/untreated control) (fraction); higher = stronger inhibition; details: 1000 nM; time (day): 6; 177Lu-lilotomab satetraxetan 1 ug/ml
Structures can show the parent of a compound that is named as a salt.
growth inhibition by drug plus 177Lu-lilotomab satetraxetan reference

compound="CCCC(CCC)C(=O)O [Valproic acid sodium salt (Sodium valproate)]" assay_target=U-2932 obs_value=0.0659
compound="CC[C@H]1OC(=O)[C@H](C)[C@@H](O[C@H]2C[C@@](C)(OC)[C@@H](O)[C@H](C)O2)[C@H](C)[C@@H](O[C@@H]2O[C@H](C)C[C@H](N(C)C)[C@H]2O)[C@](C)(O)C[C@@H](C)CN(C)[C@H](C)[C@@H](O)[C@]1(C)O [Azithromycin (Zithromax)]" assay_target=U-2932 obs_value=0.224

Could you now look at the following compound, please?
Inquiry: Give growth inhibition by drug plus 177Lu-lilotomab satetraxetan for C[C@]1(O)C[C@@H](c2nc(-c3ccc4ccc(-c5ccccc5)nc4c3)c3c(N)nccn32)C1 [Linsitinib (OSI-906)]
Reply text: 0.223
